test system: A/Hong Kong/213/2003 (H5N1); experiment: microbe, parasite or virus in culture; format: cell-based; conditions: Influenza A virus, H5N1, MDCK
QUANTITY_KIND: EC50 (nM)
Field: numeric (nM). Do not append units.

Documented EC50 of COC[C@@]1(C)COC[C@@H](COc2ccc(-c3cc(C(N)=O)c(O)nc3C(F)(F)F)cc2)O1 : 19

----------
test system: A549 cells; settings: human
QUANTITY_KIND: CC50

Documented CC50 of COC[C@@]1(C)COC[C@@H](COc2ccc(-c3cc(C(N)=O)c(O)nc3C(F)(F)F)cc2)O1 [VNT-101] : > 100 µM

----------
assay: in vitro; conditions: dog
QUANTITY_KIND: CC50

Documented CC50 of COC[C@@]1(C)COC[C@@H](COc2ccc(-c3cc(C(N)=O)c(O)nc3C(F)(F)F)cc2)O1 [VNT-101] : > 100 µM

----------
Consider the following molecules; for each one, report its pEC50.
system: A/Puerto Rico/8/1934 (H1N1); assay: microbe, parasite or virus in culture; format: cell-based, Influenza A virus; details: Influenza A virus, H1N1, MDCK
Bear in mind: pEC50 is minus log10 of a mol/L concentration; give just that figure.

Documented pEC50 of O=C1c2c(O)c(=O)ccn2N([C@@H]2c3ccccc3SCc3c2ccc(F)c3F)[C@@H]2COCCN12 [Baloxavir, baloxavir, reference compound] : 9.24

Documented pEC50 of COC[C@@]1(C)COC[C@@H](COc2ccc(-c3cc(C(N)=O)c(O)nc3C(F)(F)F)cc2)O1 : 8.68

Documented pEC50 of CCOC(=O)C1=C[C@@H](OC(CC)CC)[C@H](NC(C)=O)[C@@H](N)C1 [Oseltamivir, oseltamivir, reference compound] : 6.01

----------
tested on: A/Taiwan/1/2017 (H7N9); assay: microbe, parasite or virus in culture; assay type: cell-based; conditions: Influenza A virus, H7N9, MDCK
QUANTITY_KIND: EC50 (µM)
Field: numeric (µM). Do not append units.

Documented EC50 of COC[C@@]1(C)COC[C@@H](COc2ccc(-c3cc(C(N)=O)c(O)nc3C(F)(F)F)cc2)O1 [VNT-101] : 0.069

----------
test system: A/Perth/16/2009 (H3N2); assay: microbe, parasite or virus in culture; type: cell-based; conditions: Influenza A virus, H3N2, MDCK
QUANTITY_KIND: EC50 (nM)
Field: numeric (nM). Do not append units.

Documented EC50 of COC[C@@]1(C)COC[C@@H](COc2ccc(-c3cc(C(N)=O)c(O)nc3C(F)(F)F)cc2)O1 : 4.05

----------
system: A/Wilson-Smith/1933 (H1N1); test: microbe, parasite or virus in culture; assay type: cell-based; settings: Influenza A virus, H1N1, MDCK
QUANTITY_KIND: EC50 (nM)
Field: numeric (nM). Do not append units.

Documented EC50 of COC[C@@]1(C)COC[C@@H](COc2ccc(-c3cc(C(N)=O)c(O)nc3C(F)(F)F)cc2)O1 : 26.3

----------
test system: A/Mexico/4108/2009 (H1N1); experiment: microbe, parasite or virus in culture; assay type: cell-based; settings: Influenza A virus, H1N1, MDCK
QUANTITY_KIND: EC50 (nM)
Field: numeric (nM). Do not append units.

Documented EC50 of COC[C@@]1(C)COC[C@@H](COc2ccc(-c3cc(C(N)=O)c(O)nc3C(F)(F)F)cc2)O1 : 14.4
